testName: In vivo bioavailability experiment, single oral administration
Set-up: species or system rat
conditionContext: male, HAN:WIST, rat, plasma, po, 6 mg base/kg, rat plasma, oral SPP100 hemifumarate 6 mg base/kg + vehicle

molecule	Cmax
COCCCOc1cc(C[C@@H](C[C@H](N)[C@@H](O)C[C@H](C(=O)NCC(C)(C)C(N)=O)C(C)C)C(C)C)ccc1OC [SPP100]	~24.8 ng/mL

* * *

testName: In vivo bioavailability experiment, single oral administration
Parameters: species or system rat
conditionContext: male, HAN:WIST, rat, plasma, po, 6 mg/kg, oral SPP100 6 mg base/kg + PSC833 5 mg/kg

compound	Tmax
COCCCOc1cc(C[C@@H](C[C@H](N)[C@@H](O)C[C@H](C(=O)NCC(C)(C)C(N)=O)C(C)C)C(C)C)ccc1OC [SPP100]	4.8 h

* * *

testName: in vitro
conditionContext: human, Caco-2

molecule	Papp B→A at 120 min, 1 µM
COCCCOc1cc(C[C@@H](C[C@H](N)[C@@H](O)C[C@H](C(=O)NCC(C)(C)C(N)=O)C(C)C)C(C)C)ccc1OC	~1.67 ×10⁻⁶ cm/s

* * *

testName: In vivo bioavailability experiment, single oral administration
Parameters: species or system rat
conditionContext: male, HAN:WIST, rat, plasma, po, 6 mg/kg, oral SPP100 6 mg base/kg + PSC833 50 mg/kg

molecule	unitOfMeasurement	Tmax
COCCCOc1cc(C[C@@H](C[C@H](N)[C@@H](O)C[C@H](C(=O)NCC(C)(C)C(N)=O)C(C)C)C(C)C)ccc1OC	h	3.06

* * *

Recorded Papp A→B at 120 min values for a group of molecules are listed next.
testName: in vitro
conditionContext: human, Caco-2

molecule	Papp A→B at 120 min
CC(C)NCC(O)COc1cccc2ccccc12 (centres unmarked) [Propranolol, reference compound]	< 15 ×10⁻⁶ cm/s
OC[C@@H](O)[C@@H](O)[C@H](O)[C@H](O)CO [Mannitol, reference compound]	< 0.5 ×10⁻⁶ cm/s

* * *

testName: In vivo bioavailability experiment, single oral administration
Parameters: species or system rat
conditionContext: male, HAN:WIST, rat, plasma, po, 6 mg/kg, oral SPP100 6 mg base/kg + PSC833 12.5 mg/kg
measuredQuantity: Tmax (h)

molecule	measuredQuantity	unitOfMeasurement	reading
COCCCOc1cc(C[C@@H](C[C@H](N)[C@@H](O)C[C@H](C(=O)NCC(C)(C)C(N)=O)C(C)C)C(C)C)ccc1OC	Tmax	h	4.95
